Test system: HEK-293T
Assay: Incucyte cell viability with HEK293T; further: filed as whole numbers so only -1 and 0 and 1 occur
Type: toxicity, cell-based
Settings: human, 12 h, 10 µM, compound concentration 10 uM, replicate number 1, timepoint 12 hours
Would you mind telling me the reported Growth Rate of each entry?
One number for each entry.

Use these answered entries as a reference point.
So what does the record say about Growth Rate for N#Cc1c(O)nc(SCc2cccc(F)c2F)nc1C1CC1 ?
1

Name the reported Growth Rate value associated with the compound Cn1cncc1[C@@](O)(COc1ccc(C#N)cc1-c1ccc(OC(F)(F)F)cc1)c1ccc(C#N)cc1 [A-108]
1

What Growth Rate value was documented for this compound, COc1ccc(Oc2cc(NCCC(F)(F)F)c3ncc(-c4ccc(C(=O)NC5CC5)c(C)c4)n3n2)c(F)c1F [BAY-1217389] ?
0

Dear colleague, I am looking for the recorded Growth Rate of the following compound: N[C@H](C(=O)O)c1ccc(C(=O)O)c(C(=O)O)c1
1

Suppose we examine the compound CNC(=NCCSCc1csc(N=C(N)N)n1)NC#N [TIOTIDINE] ; what Growth Rate value has been reported?
1

List the reported Growth Rate of each compound below.
1. C[C@@H]1CCN(C(=O)CC#N)C[C@@H]1N(C)c1ncnc2[nH]ccc12.O=C(O)CC(O)(CC(=O)O)C(=O)O [TOFACITINIB CITRATE]
2. C[C@@]1(C(=O)Nc2ccc(F)nc2)CCCN1c1nc(Nc2cc(C3CC3)n[nH]2)c2cccn2n1 [BMS-754807]
3. CCn1cc(-c2cccc(C(F)(F)F)c2)c2sc(C(=N)NC3CCS(=O)(=O)CC3)cc2c1=O
4. CN(C)S(=O)(=O)c1ccc(NC(=S)N2CCC(C(O)(c3ccccc3)c3ccccc3)CC2)cc1
5. CNCCC(Oc1ccc(C(F)(F)F)cc1)c1ccccc1.Cl (stereo not drawn) [FLUOXETINE HYDROCHLORIDE]
6. Br.Br.N=C(N)SCCc1c[nH]cn1

1. 0
2. 0
3. 0
4. 0
5. 0
6. 1

Provide the reported Growth Rate of each entry below, same order.
1. CCn1c(=O)c(-c2ccc(Cl)cc2Cl)cc2cnc(Nc3ccc(N4CCNCC4)c(F)c3)nc21
2. CC(=O)Nc1c(C(C)=O)c(=O)n(C)c2nc(-c3ccc(Cl)cc3Cl)c(-c3ccc(Cl)cc3)cc12 [NAPHTHYRIDINONE]

1. 0
2. 0

====

Test system: Fibroblast
Experiment: Multiplex assay against human fibroblast
Assay type: toxicity, cell-based
Details: 48 h, 10 µM, compound concentration 10 uM, replicate 1
Kindly supply the reported Population Mitochondria Different-Phenotype (%) values for the records listed here.
Numbers only, in %.

Worked examples, 2 compounds total:
Return reported Population Mitochondria Different-Phenotype (%); argument: COc1cc(-n2cnc3cc(-c4ccc(Cl)cc4)sc3c2=O)ccc1OCCN1CCCC1
47

Which value of Population Mitochondria Different-Phenotype (%) has been reported for CCn1c(=O)c(-c2ccc(Cl)cc2Cl)cc2cnc(Nc3ccc(N4CCNCC4)c(F)c3)nc21 in the records?
15

Consider the additional compound presented here.
Given C[C@@]1(C(=O)Nc2ccc(F)nc2)CCCN1c1nc(Nc2cc(C3CC3)n[nH]2)c2cccn2n1 , state its recorded Population Mitochondria Different-Phenotype (%).
28

====

Exercise: for every item that follows, state its recorded Growth Rate.
Test system: HEK-293T
Assay: Incucyte cell viability with HEK293T; further: filed as whole numbers so only -1 and 0 and 1 occur
Assay type: toxicity, cell-based
Details: human, 24 h, 10 µM, compound concentration 10 uM, replicate number 1, timepoint 24 hours
Answers are plain numbers.

Which Growth Rate is listed for CCCCN1CCC(COC(=O)c2cc(Cl)c(N)c3c2OCCO3)CC1.Cl ?
0

What measured Growth Rate goes with c1cn2cc(-c3ccc4cn[nH]c4c3)nc(Nc3ccc(N4CCOCC4)cc3)c2n1 ?
1

Which Growth Rate is listed for Cc1cccc(-c2cnc3occ(-c4ccc(C(=O)O)c(C5CCCC5)c4)c3c2)c1 ?
1

Provide reported Growth Rate for each item, in the same order as listed.
1. C=CC(=O)Nc1cc2c(Nc3ccc(F)c(Cl)c3)ncnc2cc1OCCCN1CCOCC1.Cl.Cl [CANERTINIB DIHYDROCHLORIDE]
2. Cn1cncc1[C@@](O)(COc1ccc(C#N)cc1-c1ccc(OC(F)(F)F)cc1)c1ccc(C#N)cc1
3. Cl.Cl.c1ccc([C@@H]2C[C@H]2NC2CCNCC2)cc1
4. COc1ncc(-c2ccc3nccc(-c4ccnnc4)c3c2)cc1NS(=O)(=O)c1ccc(F)cc1F

[0, 0, 1, 0]

Return reported Growth Rate values for all items listed beneath this line.
1. O=C(Nc1cnc(Oc2ccc(F)cc2)nc1)N1CCc2ncccc2[C@@H]1c1ccc(F)cc1
2. COc1ccc(C2(O)OC(=O)C(c3ccc4c(c3)OCO4)=C2Cc2cc(OC)c(OC)c(OC)c2)cc1 (stereo not given)
3. NC(=O)Nc1cc(-c2cccc(F)c2)sc1C(=O)N[C@H]1CCCNC1
4. O=C(NCCCC1CCCCC1)c1ccc(CNC(=O)c2cnn(-c3ccccc3)c2C(F)(F)F)cc1
5. CC(C)(O)CNc1ncc(-c2ccnc(Nc3ccnc(Cl)c3)n2)c(CC2CC2)n1
6. O=C(NCc1ccccc1)c1ccc(S(=O)(=O)NCc2ccccc2)cc1
7. CN(C)S(=O)(=O)c1ccc(NC(=S)N2CCC(C(O)(c3ccccc3)c3ccccc3)CC2)cc1

[0, 0, 0, 0, 0, 0, 0]

====

Tested on: HEK-293T
Test: Multiplex assay against HEK293T
Format: toxicity, cell-based
Conditions: human, 24 h, 10 µM, compound concentration 10 uM, replicate 1
// returns rule not met unless Population Hoechst High Intensity Objects (%) is strictly below 20%, in which case rule met

Consider the following illustrative entries.
# strict comparison: is reported Population Hoechst High Intensity Objects (%) < 20%? input = CN1CCCC(n2nc(Cc3ccc(Cl)cc3)c3ccccc3c2=O)CC1.Cl (stereo not given) [AZELASTINE HYDROCHLORIDE]
rule met

Lab note: Population Hoechst High Intensity Objects (%) threshold 20%. Does this compound come in strictly under it? Cc1nc(-c2ccc(-c3ccc(C(=O)N4CCc5cc6c(cc54)C4(CCN(C)CC4)CO6)cc3)c(C)c2)no1
rule met

Dear colleague, could you confirm whether Population Hoechst High Intensity Objects (%) of CN(C)C(=O)N[C@H]1CC[C@H](CCN2CCN(c3cccc(Cl)c3Cl)CC2)CC1.Cl [CARIPRAZINE HYDROCHLORIDE] falls below 20%? Thanks.
rule met

Report whether reported Population Hoechst High Intensity Objects (%) is lower than 20% (strictly) for C=CC(=O)Nc1ccc2ncnc(Nc3ccc(OCc4cccc(F)c4)c(Cl)c3)c2c1.Cc1ccc(S(=O)(=O)O)cc1
rule met

API: the following record is the query input.
Strictly below 20%: is that where Population Hoechst High Intensity Objects (%) of Cl.N#Cc1ccc2[nH]cc(CCCCN3CCN(c4ccc5oc(C(N)=O)cc5c4)CC3)c2c1 [VILAZODONE HYDROCHLORIDE] sits?
rule not met

====

System: Fibroblast
Assay: Multiplex assay against human fibroblast
Format: toxicity, cell-based
Conditions: 48 h, 10 µM, compound concentration 10 uM, replicate 1
Answer each item with its documented Population Mitotic Cells (%).
One number for each entry, in %.

Look at this compound and give its reported Population Mitotic Cells (%). COc1cc2nccc(Oc3ccc(NC(=O)Nc4cc(C)on4)c(Cl)c3)c2cc1OC.O
23

Value lookup for Population Mitotic Cells (%); key = CC[C@H](C)C(=O)O[C@H]1C[C@@H](C)C=C2C=C[C@H](C)[C@H](CC[C@@H]3C[C@@H](O)CC(=O)O3)[C@H]21 [LOVASTATIN]
28

What does the record list as Population Mitotic Cells (%) for CNCc1ccccc1-c1csc([C@H](C)Nc2nc(C)nc3cc(OC)c(OC)cc23)c1 [BAY-294] ?
25

For each of the compounds below, note its Population Mitotic Cells (%).
1. COc1ncc(-c2ccc3nccc(-c4ccnnc4)c3c2)cc1NS(=O)(=O)c1ccc(F)cc1F [OMIPALISIB]
2. Cc1cc(C)cc(-c2cnc3cc(Cl)c(-c4cccc(O)c4)cc3c2OCCCN)c1
3. CN(C)C(=O)N[C@H]1CC[C@H](CCN2CCN(c3cccc(Cl)c3Cl)CC2)CC1.Cl [CARIPRAZINE HYDROCHLORIDE]

[36, 44, 20]

====

Test system: Fibroblast
Assay: Multiplex assay against human fibroblast
Assay type: toxicity, cell-based
Conditions: 12 h, 10 µM, compound concentration 10 uM, replicate 2
Please provide measured Population Tubulin-Different-Phenotype (%) for the entries that follow.
Numbers only, in %.

Endpoint output: Population Tubulin-Different-Phenotype (%) of Cn1cc(-c2[nH]c3cc(NC(=O)[C@H](N)C4CCCCC4)cc4c3c2C=NNC4=O)cn1 . Value?
57

Sample C=CC(=O)Nc1cc2c(Nc3ccc(F)c(Cl)c3)ncnc2cc1OCCCN1CCOCC1.Cl.Cl [CANERTINIB DIHYDROCHLORIDE] — what was its Population Tubulin-Different-Phenotype (%)?
27

# input molecule: C[C@@H](NCCCc1cccc(C(F)(F)F)c1)c1cccc2ccccc12.Cl [CINACALCET HYDROCHLORIDE] ; wanted: its Population Tubulin-Different-Phenotype (%)
93

Would you mind telling me what Population Tubulin-Different-Phenotype (%) value was observed for CNc1nc(NCc2ccc(NS(C)(=O)=O)cc2Cl)cc(-c2ccccn2)n1 ?
30

Suppose we examine the molecule CN(C)C(=O)N[C@H]1CC[C@H](CCN2CCN(c3cccc(Cl)c3Cl)CC2)CC1.Cl [CARIPRAZINE HYDROCHLORIDE] ; what Population Tubulin-Different-Phenotype (%) value has been reported?
95

For the 2 molecules below, give their Population Tubulin-Different-Phenotype (%) values.
1. Cc1nc(-c2ccc(-c3ccc(C(=O)N4CCc5cc6c(cc54)C4(CCN(C)CC4)CO6)cc3)c(C)c2)no1 [SB-224289]
2. CC[C@H](C)C(=O)O[C@H]1C[C@@H](C)C=C2C=C[C@H](C)[C@H](CC[C@@H]3C[C@@H](O)CC(=O)O3)[C@H]21 [LOVASTATIN]

1: 100; 2: 20

Items follow; give Population Tubulin-Different-Phenotype (%) for each.
1. COc1cc2nccc(Oc3ccc(NC(=O)Nc4cc(C)on4)c(Cl)c3)c2cc1OC.O
2. c1cn2cc(-c3ccc4cn[nH]c4c3)nc(Nc3ccc(N4CCOCC4)cc3)c2n1 [ENTOSPLETINIB]
3. CC(C)NCC(O)COc1ccc(CCOCC2CC2)cc1.Cl (stereo not drawn) [BETAXOLOL HYDROCHLORIDE]
4. CN1CCCC(n2nc(Cc3ccc(Cl)cc3)c3ccccc3c2=O)CC1.Cl (stereo not drawn) [AZELASTINE HYDROCHLORIDE]
5. CN(C)CC#Cc1ccc(OCCCc2sc(N3CCc4cccc(C(=O)Nc5nc6ccccc6s5)c4C3)nc2C(=O)O)c(F)c1 [A-1155463]
6. OC1(c2ccc(Cl)cc2)CCN(Cc2c[nH]c3ccccc23)CC1

1: 97; 2: 78; 3: 49; 4: 100; 5: 25; 6: 60
